src = patent US12060400B2

Test system: HLA-A*24
Assay: MHC binding assay: UV-ligand exchange with beta2m ELISA (peptide exchange yield)
Parameters: species or system human
Conditions: Table 11, binding to HLA-A*24, UV-ligand exchange
quantity kind: Peptide exchange (MHC class I binding score, peptide exchange yield)

- substance: "251 (DYLLSWLLF; listed as Homo sapiens) [compound 251]"
  result value: "++++ (>75% = ++++)"
- substance: "179 (MYNMVPFF; listed as Homo sapiens) [compound 179]"
  result value: "+++ (>50 = +++)"
- substance: "161 (ILQAPLSVF; listed as Homo sapiens) [compound 161]"
  result value: "++ (>20% = ++)"
- substance: "164 (MFQEMLQRL; listed as Homo sapiens) [compound 164]"
  result value: "+ (>10% = +)"
- substance: "81 (AYLKLLPMF; listed as Homo sapiens) [compound 81]"
  result value: "++++ (>75% = ++++)"
- substance: "75 (VYEHNHVSL; listed as Homo sapiens) [compound 75]"
  result value: "+++ (>50 = +++)"
- substance: "214 (YIPMSVMLF; listed as Homo sapiens) [compound 214]"
  result value: "+++ (>50 = +++)"
- substance: "299 (FLPALYSLL; listed as Homo sapiens) [compound 299]"
  result value: "+++ (>50 = +++)"
- substance: "329 (YLGKNWSF; listed as Homo sapiens) [compound 329]"
  result value: "++ (>20% = ++)"
- substance: "294 (KMGRIVDYF; listed as Homo sapiens) [compound 294]"
  result value: "++++ (>75% = ++++)"
- substance: "307 (RILTEFELL; listed as Homo sapiens) [compound 307]"
  result value: "+++ (>50 = +++)"
- substance: "223 (KLRALSILF; listed as Homo sapiens) [compound 223]"
  result value: "+ (>10% = +)"
